Examples of compounds with documented IC50 follow.
# experimental-target: Platelet-derived growth factor receptor beta (Homo sapiens, UniProt P09619)
# Sequence (P09619 whole entry): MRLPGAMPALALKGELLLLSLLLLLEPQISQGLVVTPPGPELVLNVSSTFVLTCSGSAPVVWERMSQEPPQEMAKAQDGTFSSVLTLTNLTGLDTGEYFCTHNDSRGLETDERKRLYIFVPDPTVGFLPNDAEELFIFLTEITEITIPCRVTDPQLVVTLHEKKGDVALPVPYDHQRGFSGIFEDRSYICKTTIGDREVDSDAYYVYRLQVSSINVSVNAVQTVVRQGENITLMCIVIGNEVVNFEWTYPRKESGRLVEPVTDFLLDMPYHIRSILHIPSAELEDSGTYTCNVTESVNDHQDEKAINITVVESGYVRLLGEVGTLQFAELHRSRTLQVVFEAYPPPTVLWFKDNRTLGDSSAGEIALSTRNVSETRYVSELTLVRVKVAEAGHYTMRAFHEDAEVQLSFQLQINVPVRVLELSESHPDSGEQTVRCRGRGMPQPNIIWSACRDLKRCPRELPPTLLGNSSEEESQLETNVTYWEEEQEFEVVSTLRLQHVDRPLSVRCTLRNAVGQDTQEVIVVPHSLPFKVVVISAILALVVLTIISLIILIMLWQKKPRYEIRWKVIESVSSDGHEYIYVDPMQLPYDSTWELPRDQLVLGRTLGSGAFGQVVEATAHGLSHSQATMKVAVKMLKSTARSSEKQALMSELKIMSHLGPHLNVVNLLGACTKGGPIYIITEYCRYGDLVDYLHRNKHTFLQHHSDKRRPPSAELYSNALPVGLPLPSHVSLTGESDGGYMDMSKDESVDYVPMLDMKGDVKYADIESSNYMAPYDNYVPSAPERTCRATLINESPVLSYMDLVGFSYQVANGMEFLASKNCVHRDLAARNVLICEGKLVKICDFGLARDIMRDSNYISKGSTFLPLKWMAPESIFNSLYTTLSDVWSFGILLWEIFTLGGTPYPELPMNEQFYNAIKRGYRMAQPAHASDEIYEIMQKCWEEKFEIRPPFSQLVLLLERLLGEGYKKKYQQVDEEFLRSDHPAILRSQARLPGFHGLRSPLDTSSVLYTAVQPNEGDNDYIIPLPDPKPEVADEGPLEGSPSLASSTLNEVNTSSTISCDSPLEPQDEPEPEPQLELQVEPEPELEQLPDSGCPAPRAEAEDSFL
# protocol-description: Inhibition of human recombinant PDGFRbeta

COc1cc(C2=C(c3cn(COC(C)(C)C)c4ccccc34)CNC2=O)cc(OC)c1OC    38 µM

Incoming: Consider the compound shown here: COc1cc(C2=C(c3cn(CC(O)CO)c4ccccc34)CNC2=O)cc(OC)c1OC (configuration not stated) What is its recorded IC50?
Outgoing: 40 µM

---

Examples of compounds with documented IC50 follow.
# experimental-target: Aurora kinase A (Homo sapiens, UniProt O14965)
# Sequence (O14965 whole entry): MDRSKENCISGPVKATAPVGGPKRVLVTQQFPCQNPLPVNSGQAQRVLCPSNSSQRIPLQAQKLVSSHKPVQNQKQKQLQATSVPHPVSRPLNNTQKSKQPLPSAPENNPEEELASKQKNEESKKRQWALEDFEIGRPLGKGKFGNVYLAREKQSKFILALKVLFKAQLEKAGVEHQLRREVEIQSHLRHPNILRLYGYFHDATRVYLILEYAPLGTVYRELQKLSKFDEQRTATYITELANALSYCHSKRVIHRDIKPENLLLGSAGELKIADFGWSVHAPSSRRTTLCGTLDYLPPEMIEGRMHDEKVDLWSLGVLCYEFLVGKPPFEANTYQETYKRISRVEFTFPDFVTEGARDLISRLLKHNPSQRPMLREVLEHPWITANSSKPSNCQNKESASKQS
# protocol-description: Inhibition of human recombinant Aurora A
// return numeric value only (unit: µM, not printed)

Example results:
COc1cc(C2=C(c3cn(COC(C)(C)C)c4ccccc34)CNC2=O)cc(OC)c1OC    30
COc1cc(C2=C(c3c[nH]c4ccccc34)C(=O)NC2)cc(OC)c1OC    3.2

Incoming: Record lookup: for Aurora kinase A (Homo sapiens, UniProt O14965), what IC50 belongs to COc1cc(C2=C(c3cn(COc4ccccc4)c4ccccc34)CNC2=O)cc(OC)c1OC ?
Outgoing: 6.5

Incoming: Record lookup: for Aurora kinase A (Homo sapiens, UniProt O14965), what IC50 belongs to COc1cc(C2=C(c3cn(C)c4ccccc34)C(=O)NC2)cc(OC)c1OC ?
Outgoing: 3.2

---

# experimental-target: Aurora kinase B (Homo sapiens)
# Sequence (Q96GD4 whole entry): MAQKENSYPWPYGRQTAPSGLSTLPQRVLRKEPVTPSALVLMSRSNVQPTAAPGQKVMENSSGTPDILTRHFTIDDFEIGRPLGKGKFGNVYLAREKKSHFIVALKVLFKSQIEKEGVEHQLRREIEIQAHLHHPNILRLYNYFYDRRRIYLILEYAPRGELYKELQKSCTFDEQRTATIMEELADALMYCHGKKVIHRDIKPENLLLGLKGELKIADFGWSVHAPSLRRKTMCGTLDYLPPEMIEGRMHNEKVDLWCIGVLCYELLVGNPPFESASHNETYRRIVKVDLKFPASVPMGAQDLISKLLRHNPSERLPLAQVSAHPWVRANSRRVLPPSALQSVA
# protocol-description: Inhibition of human recombinant Aurora B
endpoint-name: log10(IC50) (log10 of the value in µM)
Friendly reminder: values = log10 of IC50, unit µM.

COc1cc(C2=C(c3cn(C)c4ccccc34)C(=O)NC2)cc(OC)c1OC    0.99
COc1cc(C2=C(c3cn(COC(C)(C)C)c4ccccc34)CNC2=O)cc(OC)c1OC    1.63
COc1cc(C2=C(c3cn(COc4ccccc4)c4ccccc34)CNC2=O)cc(OC)c1OC    1.30

Incoming: Consider the compound shown here: COc1cc(C2=C(c3c[nH]c4ccccc34)CNC2=O)cc(OC)c1OC What is its recorded log10(IC50)?
Outgoing: 1.66

Incoming: Consider the compound shown here: COc1ccc(C2=C(c3c[nH]c4ccccc34)C(=O)NC2)cc1 What is its recorded log10(IC50)?
Outgoing: 0.69

Incoming: Consider the compound shown here: COc1cc(C2=C(c3c[nH]c4ccccc34)C(=O)NC2)cc(OC)c1OC What is its recorded log10(IC50)?
Outgoing: 0.32

---

# experimental-target: Cyclin-dependent kinase 4/cyclin D1 (Homo sapiens)
# Sequence (P11802 whole entry): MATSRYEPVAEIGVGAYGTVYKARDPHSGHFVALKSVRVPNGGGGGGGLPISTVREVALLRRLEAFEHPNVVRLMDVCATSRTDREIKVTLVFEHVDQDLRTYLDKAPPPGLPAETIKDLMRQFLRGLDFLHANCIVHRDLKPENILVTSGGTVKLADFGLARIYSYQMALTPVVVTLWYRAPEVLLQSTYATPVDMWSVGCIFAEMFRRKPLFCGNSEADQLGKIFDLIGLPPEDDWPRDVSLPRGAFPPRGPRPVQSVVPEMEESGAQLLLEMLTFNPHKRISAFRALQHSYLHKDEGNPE
# Sequence (P24385 whole entry, further chain): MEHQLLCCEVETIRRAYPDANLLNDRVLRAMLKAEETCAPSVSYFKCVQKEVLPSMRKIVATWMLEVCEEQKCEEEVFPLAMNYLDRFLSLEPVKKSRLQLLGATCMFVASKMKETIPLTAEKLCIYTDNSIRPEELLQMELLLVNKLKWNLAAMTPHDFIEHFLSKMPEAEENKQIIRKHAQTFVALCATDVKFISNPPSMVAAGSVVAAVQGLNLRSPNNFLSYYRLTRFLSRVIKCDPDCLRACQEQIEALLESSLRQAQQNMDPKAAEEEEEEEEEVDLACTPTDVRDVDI
# protocol-description: Inhibition of human recombinant CDK4/cyclin D1
endpoint-name: pIC50
Friendly reminder that pIC50 comes from taking -log10 of the concentration in mol/L.

Example results:
COc1cc(C2=C(c3cn(COC(C)(C)C)c4ccccc34)CNC2=O)cc(OC)c1OC    4.57
COc1cc(C2=C(c3cn(C)c4ccccc34)C(=O)NC2)cc(OC)c1OC    4.40
COc1ccc(C2=C(c3c[nH]c4ccccc34)C(=O)NC2)cc1    4.46
COc1cc(C2=C(c3cn(COc4ccccc4)c4ccccc34)CNC2=O)cc(OC)c1OC    4.36

Could you now consider this next compound?
Incoming: Consider the compound shown here: COc1cc(C2=C(c3c[nH]c4ccccc34)C(=O)NC2)cc(OC)c1OC What is its recorded pIC50?
Outgoing: 4.52

---

# experimental-target: NUAK family SNF1-like kinase 1 (Homo sapiens, UniProt O60285)
# protocol-description: Inhibition of human recombinant ARK5
Examples of molecules with documented pIC50 follow.
Friendly reminder that pIC50 comes from taking -log10 of the concentration in mol/L.

Example results:
COc1cc(C2=C(c3cn(C)c4ccccc34)C(=O)NC2)cc(OC)c1OC    5.31
COc1cc(C2=C(c3cn(CC(O)CO)c4ccccc34)CNC2=O)cc(OC)c1OC (stereo not given)    4.47
COc1ccc(C2=C(c3cn(C)c4ccccc34)C(=O)NC2)cc1    5.44
COc1ccc(C2=C(c3c[nH]c4ccccc34)C(=O)NC2)cc1    5.70

Could you now consider this next molecule?
Incoming: Consider the molecule shown here: COc1cc(C2=C(c3c[nH]c4ccccc34)C(=O)NC2)cc(OC)c1OC What is its recorded pIC50?
Outgoing: 5.74

---

# experimental-target: Proto-oncogene tyrosine-protein kinase Src (Homo sapiens, UniProt P12931)
# Sequence (P12931 2-536 limits assumed): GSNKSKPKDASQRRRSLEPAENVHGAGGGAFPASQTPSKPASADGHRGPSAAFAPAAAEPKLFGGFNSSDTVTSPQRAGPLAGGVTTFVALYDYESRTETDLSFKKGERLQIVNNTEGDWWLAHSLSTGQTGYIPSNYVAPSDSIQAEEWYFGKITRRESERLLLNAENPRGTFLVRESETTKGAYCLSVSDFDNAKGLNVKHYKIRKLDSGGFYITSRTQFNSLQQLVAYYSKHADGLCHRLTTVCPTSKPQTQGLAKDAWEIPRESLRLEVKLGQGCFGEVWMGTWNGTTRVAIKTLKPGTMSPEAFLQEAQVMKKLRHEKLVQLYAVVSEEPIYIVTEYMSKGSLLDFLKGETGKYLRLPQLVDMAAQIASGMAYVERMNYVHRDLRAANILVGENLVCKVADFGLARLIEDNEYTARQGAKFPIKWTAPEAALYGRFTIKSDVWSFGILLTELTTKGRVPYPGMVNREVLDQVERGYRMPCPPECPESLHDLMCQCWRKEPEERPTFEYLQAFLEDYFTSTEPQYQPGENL
# protocol-description: Inhibition of human recombinant SRC
endpoint-name: IC50 (µM)
// return numeric value only (unit: µM, not printed)

Example results:
COc1ccc(C2=C(c3cn(C)c4ccccc34)C(=O)NC2)cc1    39
COc1cc(C2=C(c3cn(COCc4ccccc4)c4ccccc34)CNC2=O)cc(OC)c1OC    9.1

Incoming: Consider the compound shown here: CCOCn1cc(C2=C(c3cc(OC)c(OC)c(OC)c3)C(=O)NC2)c2ccccc21 What is its recorded IC50?
Outgoing: 40

---

# experimental-target: Hepatocyte growth factor receptor (Homo sapiens)
# protocol-description: Inhibition of human recombinant MET
endpoint-name: pIC50
Friendly reminder that pIC50 comes from taking -log10 of the concentration in mol/L.

Incoming: Consider the compound shown here: COc1cc(C2=C(c3cn(COC(C)(C)C)c4ccccc34)CNC2=O)cc(OC)c1OC What is its recorded pIC50?
Outgoing: 4.54

---

# experimental-target: Focal adhesion kinase 1 (Homo sapiens, UniProt Q05397)
# Sequence (Q05397 whole entry): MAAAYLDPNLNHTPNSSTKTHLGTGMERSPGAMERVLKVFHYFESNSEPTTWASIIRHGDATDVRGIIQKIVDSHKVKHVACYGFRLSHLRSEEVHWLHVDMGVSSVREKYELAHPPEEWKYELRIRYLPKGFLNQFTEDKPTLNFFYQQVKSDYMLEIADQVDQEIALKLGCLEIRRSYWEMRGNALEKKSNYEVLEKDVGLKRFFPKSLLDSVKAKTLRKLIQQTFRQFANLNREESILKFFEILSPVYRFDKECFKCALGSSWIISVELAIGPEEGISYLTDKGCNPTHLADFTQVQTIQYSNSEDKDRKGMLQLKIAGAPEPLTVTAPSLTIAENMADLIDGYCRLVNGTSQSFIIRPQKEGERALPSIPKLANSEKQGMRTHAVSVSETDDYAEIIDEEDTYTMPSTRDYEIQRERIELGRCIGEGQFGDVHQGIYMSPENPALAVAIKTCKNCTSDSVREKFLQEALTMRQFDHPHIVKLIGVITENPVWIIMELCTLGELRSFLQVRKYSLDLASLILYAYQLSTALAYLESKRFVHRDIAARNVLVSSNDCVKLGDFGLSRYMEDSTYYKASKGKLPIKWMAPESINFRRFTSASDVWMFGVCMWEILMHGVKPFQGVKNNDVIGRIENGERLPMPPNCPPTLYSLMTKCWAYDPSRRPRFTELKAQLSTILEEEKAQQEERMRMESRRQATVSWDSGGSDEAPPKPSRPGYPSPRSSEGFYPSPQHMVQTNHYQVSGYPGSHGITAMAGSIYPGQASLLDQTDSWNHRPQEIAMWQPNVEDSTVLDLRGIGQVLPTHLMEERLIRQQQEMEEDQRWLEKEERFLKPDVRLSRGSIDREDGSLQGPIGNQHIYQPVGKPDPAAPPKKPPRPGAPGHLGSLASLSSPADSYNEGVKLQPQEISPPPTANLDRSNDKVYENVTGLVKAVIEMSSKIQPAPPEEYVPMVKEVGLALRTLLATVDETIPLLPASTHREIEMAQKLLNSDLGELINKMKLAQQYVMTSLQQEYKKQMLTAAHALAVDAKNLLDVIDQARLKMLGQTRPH
# protocol-description: Inhibition of human recombinant FAK
Hi! Just check whether IC50 is below 30 µM. Below gives MET, equal or above gives NOT MET.

CCOCn1cc(C2=C(c3cc(OC)c(OC)c(OC)c3)C(=O)NC2)c2ccccc21    MET

Incoming: Is the reported IC50 for COc1cc(C2=C(c3cn(C)c4ccccc34)C(=O)NC2)cc(OC)c1OC strictly below 30 µM?
Outgoing: NOT MET

Incoming: Is the reported IC50 for COc1cc(C2=C(c3cn(COC(C)(C)C)c4ccccc34)CNC2=O)cc(OC)c1OC strictly below 30 µM?
Outgoing: MET

Incoming: Is the reported IC50 for COc1cc(C2=C(c3cn(COC(C)C)c4ccccc34)CNC2=O)cc(OC)c1OC strictly below 30 µM?
Outgoing: MET

---

Examples of compounds with documented IC50 follow.
# experimental-target: Mitogen-activated protein kinase kinase kinase 8 (Homo sapiens, UniProt P41279)
# protocol-description: Inhibition of human recombinant COT
// return numeric value only (unit: µM, not printed)

COc1cc(C2=C(c3c[nH]c4ccccc34)CNC2=O)cc(OC)c1OC    32
COc1cc(C2=C(c3cn(COc4ccccc4)c4ccccc34)CNC2=O)cc(OC)c1OC    40

Could you now consider this next compound?
Incoming: Record lookup: for Mitogen-activated protein kinase kinase kinase 8 (Homo sapiens, UniProt P41279), what IC50 belongs to COc1cc(C2=C(c3cn(COC(C)(C)C)c4ccccc34)CNC2=O)cc(OC)c1OC ?
Outgoing: 9.6

---

# experimental-target: Casein kinase II subunit alpha (Homo sapiens)
# Sequence (P68400 whole entry): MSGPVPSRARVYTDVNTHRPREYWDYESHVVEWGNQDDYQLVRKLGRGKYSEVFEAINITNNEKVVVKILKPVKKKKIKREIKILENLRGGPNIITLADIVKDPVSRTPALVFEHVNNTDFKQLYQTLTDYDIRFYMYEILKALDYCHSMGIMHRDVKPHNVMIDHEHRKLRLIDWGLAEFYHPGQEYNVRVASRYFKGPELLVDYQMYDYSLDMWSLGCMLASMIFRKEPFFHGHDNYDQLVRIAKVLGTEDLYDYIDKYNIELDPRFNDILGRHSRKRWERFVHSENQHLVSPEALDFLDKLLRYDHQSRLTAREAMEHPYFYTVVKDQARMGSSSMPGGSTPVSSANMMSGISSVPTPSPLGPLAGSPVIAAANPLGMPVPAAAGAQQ
# protocol-description: Inhibition of human recombinant CK2A1
pIC50: −log10 of the molar value.
endpoint-name: pIC50

Incoming: Consider the compound shown here: COc1cc(C2=C(c3cn(COCc4ccccc4)c4ccccc34)CNC2=O)cc(OC)c1OC What is its recorded pIC50?
Outgoing: < 4.30

---

# experimental-target: Serine/threonine-protein kinase PLK4 (Homo sapiens, UniProt O00444)
# Sequence (O00444 whole entry): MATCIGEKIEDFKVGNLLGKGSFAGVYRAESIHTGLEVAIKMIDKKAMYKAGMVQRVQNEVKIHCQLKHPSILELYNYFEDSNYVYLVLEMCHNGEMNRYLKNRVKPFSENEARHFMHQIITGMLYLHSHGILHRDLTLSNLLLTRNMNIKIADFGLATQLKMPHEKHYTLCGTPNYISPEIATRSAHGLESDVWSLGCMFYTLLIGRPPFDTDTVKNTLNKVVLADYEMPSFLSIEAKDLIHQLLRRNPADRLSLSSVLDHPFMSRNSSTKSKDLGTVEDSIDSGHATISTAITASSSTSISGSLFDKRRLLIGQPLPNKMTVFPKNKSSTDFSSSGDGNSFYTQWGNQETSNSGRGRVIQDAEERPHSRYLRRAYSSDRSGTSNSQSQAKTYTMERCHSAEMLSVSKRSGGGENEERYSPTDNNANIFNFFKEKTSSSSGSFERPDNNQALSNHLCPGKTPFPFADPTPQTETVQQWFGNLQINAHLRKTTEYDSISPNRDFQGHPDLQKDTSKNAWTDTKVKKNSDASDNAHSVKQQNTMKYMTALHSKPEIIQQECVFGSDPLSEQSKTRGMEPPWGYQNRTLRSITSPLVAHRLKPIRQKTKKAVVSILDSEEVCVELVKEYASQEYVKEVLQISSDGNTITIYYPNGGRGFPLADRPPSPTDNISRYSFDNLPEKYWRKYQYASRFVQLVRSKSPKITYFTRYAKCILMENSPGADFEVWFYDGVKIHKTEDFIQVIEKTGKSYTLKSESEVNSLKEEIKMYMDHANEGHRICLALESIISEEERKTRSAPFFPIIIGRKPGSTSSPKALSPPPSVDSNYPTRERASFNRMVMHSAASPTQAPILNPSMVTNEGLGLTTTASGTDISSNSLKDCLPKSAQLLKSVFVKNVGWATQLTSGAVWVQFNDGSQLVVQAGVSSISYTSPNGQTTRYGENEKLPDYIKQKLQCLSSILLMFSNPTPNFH
# protocol-description: Inhibition of human recombinant SAK
Output schema: class label derived from IC50. Mapping: low interval (below 10 µM), middle interval (10 µM to below 30 µM), high interval (30 µM or more)

Incoming: # classify by IC50 band: COc1cc(C2=C(c3c[nH]c4ccccc34)C(=O)NC2)cc(OC)c1OC
Outgoing: low interval

Incoming: # classify by IC50 band: COc1cc(C2=C(c3cn(COC(C)C)c4ccccc34)CNC2=O)cc(OC)c1OC
Outgoing: high interval

Incoming: # classify by IC50 band: COc1cc(C2=C(c3cn(COC(C)(C)C)c4ccccc34)CNC2=O)cc(OC)c1OC
Outgoing: middle interval

Incoming: # classify by IC50 band: COc1cc(C2=C(c3cn(COc4ccccc4)c4ccccc34)CNC2=O)cc(OC)c1OC
Outgoing: low interval

Incoming: # classify by IC50 band: COc1cc(C2=C(c3cn(C)c4ccccc34)C(=O)NC2)cc(OC)c1OC
Outgoing: low interval

Incoming: # classify by IC50 band: COc1ccc(C2=C(c3cn(C)c4ccccc34)C(=O)NC2)cc1
Outgoing: high interval

Incoming: # classify by IC50 band: CCOCn1cc(C2=C(c3cc(OC)c(OC)c(OC)c3)C(=O)NC2)c2ccccc21
Outgoing: high interval

Measured values drawn from ChEMBL document CHEMBL1157465 for this set.
